- TARGET OF ASSAY: ZNF721 DBD2 (Homo sapiens, UniProt Q8TF20-2 395-923)
- Sequence (Q8TF20 383-911): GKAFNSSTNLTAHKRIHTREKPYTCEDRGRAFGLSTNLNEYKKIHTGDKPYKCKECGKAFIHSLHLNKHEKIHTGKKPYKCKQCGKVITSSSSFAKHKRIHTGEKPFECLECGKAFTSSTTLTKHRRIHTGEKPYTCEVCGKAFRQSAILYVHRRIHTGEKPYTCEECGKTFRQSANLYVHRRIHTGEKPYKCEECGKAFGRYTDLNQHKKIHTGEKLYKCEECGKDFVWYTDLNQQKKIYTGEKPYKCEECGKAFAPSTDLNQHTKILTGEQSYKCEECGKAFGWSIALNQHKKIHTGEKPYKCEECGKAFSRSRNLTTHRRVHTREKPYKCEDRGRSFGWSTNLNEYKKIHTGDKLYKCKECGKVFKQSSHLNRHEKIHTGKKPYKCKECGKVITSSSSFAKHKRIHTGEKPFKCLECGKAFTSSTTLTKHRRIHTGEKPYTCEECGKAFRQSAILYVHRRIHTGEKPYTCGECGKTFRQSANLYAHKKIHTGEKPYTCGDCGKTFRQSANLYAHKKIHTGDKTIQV
- ASSAY SUMMARY: HT-SELEX; 20 mM HEPES pH 7, 140 mM KCl, 5 mM NaCl, 1 mM K2HPO4, 2 mM MgSO4, 100 uM EGTA, ZnSO4, 0.1% Tween20; room temperature, 1 h; high values mean tight binding
- MEASUREMENT CONDITIONS: protein: ivt; tags: eGFP (N-terminal); dsDNA, one strand shown
For each record, write down the corresponding binding signal.
Could you kindly put the unit after your number?

CCGCCCCCCA: 0.00252 relative 10-mer count
CCCCCCTGCC: 0.00168 relative 10-mer count
AAAACAAGCA: 0.0831 relative 10-mer count
CAGCCCCACC: 0.0291 relative 10-mer count

With those in mind, consider the next sequence.
Request: Which binding signal is listed for `ACAAAAAAAA` ?
Response: 0.0899 relative 10-mer count

====

- TARGET OF ASSAY: ZNF721 full-length (Homo sapiens, UniProt Q8TF20-2 1-923)
- Sequence (Q8TF20 other isoform, or with tags, fused parts or gaps): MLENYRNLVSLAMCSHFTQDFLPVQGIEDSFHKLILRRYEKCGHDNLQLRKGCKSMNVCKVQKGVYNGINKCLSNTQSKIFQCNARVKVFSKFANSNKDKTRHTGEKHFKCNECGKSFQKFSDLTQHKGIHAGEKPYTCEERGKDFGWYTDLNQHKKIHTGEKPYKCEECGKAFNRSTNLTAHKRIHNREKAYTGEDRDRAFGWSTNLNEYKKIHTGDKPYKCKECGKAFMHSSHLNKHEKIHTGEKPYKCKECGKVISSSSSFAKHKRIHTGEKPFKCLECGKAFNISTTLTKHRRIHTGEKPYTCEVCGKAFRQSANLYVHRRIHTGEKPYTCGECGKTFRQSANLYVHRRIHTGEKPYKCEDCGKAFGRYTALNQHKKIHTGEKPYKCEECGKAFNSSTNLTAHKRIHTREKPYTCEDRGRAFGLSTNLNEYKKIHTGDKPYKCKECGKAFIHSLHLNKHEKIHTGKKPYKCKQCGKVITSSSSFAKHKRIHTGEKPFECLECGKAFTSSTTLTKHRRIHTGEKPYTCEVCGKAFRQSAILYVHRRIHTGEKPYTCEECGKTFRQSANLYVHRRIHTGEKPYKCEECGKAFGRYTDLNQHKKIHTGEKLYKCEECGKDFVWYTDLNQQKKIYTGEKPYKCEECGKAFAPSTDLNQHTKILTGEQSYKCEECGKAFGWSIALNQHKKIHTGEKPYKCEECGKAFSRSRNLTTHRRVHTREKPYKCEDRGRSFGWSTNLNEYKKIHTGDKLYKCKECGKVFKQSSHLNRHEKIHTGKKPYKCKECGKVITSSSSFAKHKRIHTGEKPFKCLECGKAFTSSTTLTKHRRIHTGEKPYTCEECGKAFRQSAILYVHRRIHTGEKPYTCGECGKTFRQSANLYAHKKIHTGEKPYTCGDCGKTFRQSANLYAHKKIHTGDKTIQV
- ASSAY SUMMARY: HT-SELEX; 20 mM HEPES pH 7, 140 mM KCl, 5 mM NaCl, 1 mM K2HPO4, 2 mM MgSO4, 100 uM EGTA, ZnSO4, 0.1% Tween20; room temperature, 1 h; high values mean tight binding
- MEASUREMENT CONDITIONS: protein: ivt; tags: eGFP (N-terminal); dsDNA, one strand shown
ENDPOINT LABEL: binding signal (relative 10-mer count)
One number for each entry, in relative 10-mer count.

Examples from the recorded data:
CCCCGCCGCC: 0.175
AGGGCGGGGG: 0.14
AAACAGCACA: 0.11

Give binding signal for each listed item.
1. AGCGTACCCA
2. CACCCCACAC
3. CCCCCCGACC
4. CCCCGGCCCC
5. AACAGCGTCT

Response:
1. 0.188
2. 0.138
3. 0.147
4. 0.12
5. 0.203

Dear colleague, could you please provide binding signal for the sequences listed below?
1. ACAGCATCCC
2. AGCATACCCT

Response:
0.114
0.346

Each sequence below has a reported value. Please supply its binding signal.
1. AAAAAGGCAT
2. CACCACCACC
3. CGCCCACCCA
4. CTCCCCCACC
5. GCAGCATACC
6. CACCCCGCCA

Response:
1. 0.188
2. 0.19
3. 0.147
4. 0.191
5. 0.151
6. 0.108

====

- TARGET OF ASSAY: ZNF721 DBD1 (Homo sapiens, UniProt Q8TF20-2 29-461)
- Sequence (Q8TF20 17-449): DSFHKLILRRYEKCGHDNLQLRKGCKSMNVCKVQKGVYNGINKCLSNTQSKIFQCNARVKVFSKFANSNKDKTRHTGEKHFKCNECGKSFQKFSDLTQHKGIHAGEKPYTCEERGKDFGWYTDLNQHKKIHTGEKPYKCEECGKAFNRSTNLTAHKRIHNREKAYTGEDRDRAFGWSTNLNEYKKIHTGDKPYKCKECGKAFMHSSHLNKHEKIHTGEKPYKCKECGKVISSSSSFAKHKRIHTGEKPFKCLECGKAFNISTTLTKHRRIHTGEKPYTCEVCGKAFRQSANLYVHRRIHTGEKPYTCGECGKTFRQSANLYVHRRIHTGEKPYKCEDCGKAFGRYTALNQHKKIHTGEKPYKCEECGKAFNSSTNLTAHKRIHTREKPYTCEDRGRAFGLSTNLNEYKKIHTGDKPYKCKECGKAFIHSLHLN
- ASSAY SUMMARY: HT-SELEX; 20 mM HEPES pH 7, 140 mM KCl, 5 mM NaCl, 1 mM K2HPO4, 2 mM MgSO4, 100 uM EGTA, ZnSO4, 0.1% Tween20; room temperature, 1 h; high values mean tight binding
- MEASUREMENT CONDITIONS: protein: ivt; tags: eGFP (N-terminal); dsDNA, one strand shown
Decision: binding signal >= 0.007 relative 10-mer count yields y, all other cases yield n.

Use the examples below as a reference point.
CCGCGCCCCC: n
CTCCCCCCCA: n
CCCACCCCGA: n
ATGGGGTGGG: n
GCCCACCCCC: y

Request: Please indicate if the recorded binding signal for `CCCTACCCCA` meets or exceeds 0.007 relative 10-mer count.
Response: n

Request: # check: binding signal of `CCCACCGCCC` is greater than or equal to 0.007 relative 10-mer count
Response: y

Request: Item `CCCTCCCACC` with binding signal of 0.007 relative 10-mer count or above?
Response: y

Request: Hi team, for `CCTCCCCCCC` , is the recorded binding signal at or above 0.007 relative 10-mer count?
Response: y

Request: State whether the measured binding signal reaches 0.007 relative 10-mer count, counting equality as reaching it, for `AGCGTTTCCA`
Response: n

Request: Identify whether the reported binding signal of the following sequence is 0.007 relative 10-mer count or greater: `CCCCCTCCGC`
Response: y
